Below, each of the compounds is paired with its reported growth inhibition value.
Assay: NCI Yeast Anticancer Drug Screen. Data for the mlh1 rad18 strain (AID 175)
Settings: S. cerevisiae mlh1 rad18 strain growth inhibition; at 50.0 µM; hits give high values
Compounds without any hit were thinned out: in the full panel of roughly 79,000, 15% have a hit.
Write it as a number; the unit % goes unstated.

Lookup: Report growth inhibition for COC(OC)C1(CCc2ccccc2)NC(=O)N(C)C1=O (stereo unspecified) please.
Found: -0.65

Lookup: Report growth inhibition for O=C(NC1CCC(CC2CCC(NC(=O)C34CC5CC(CC(C5)C3)C4)CC2)CC1)C12CC3CC(CC(C3)C1)C2 (stereo unspecified) please.
Found: 4.35
